# targetOfAssay: human JAK1 (Homo sapiens (Human), UniProt P23458)
# Sequence (P23458 whole entry): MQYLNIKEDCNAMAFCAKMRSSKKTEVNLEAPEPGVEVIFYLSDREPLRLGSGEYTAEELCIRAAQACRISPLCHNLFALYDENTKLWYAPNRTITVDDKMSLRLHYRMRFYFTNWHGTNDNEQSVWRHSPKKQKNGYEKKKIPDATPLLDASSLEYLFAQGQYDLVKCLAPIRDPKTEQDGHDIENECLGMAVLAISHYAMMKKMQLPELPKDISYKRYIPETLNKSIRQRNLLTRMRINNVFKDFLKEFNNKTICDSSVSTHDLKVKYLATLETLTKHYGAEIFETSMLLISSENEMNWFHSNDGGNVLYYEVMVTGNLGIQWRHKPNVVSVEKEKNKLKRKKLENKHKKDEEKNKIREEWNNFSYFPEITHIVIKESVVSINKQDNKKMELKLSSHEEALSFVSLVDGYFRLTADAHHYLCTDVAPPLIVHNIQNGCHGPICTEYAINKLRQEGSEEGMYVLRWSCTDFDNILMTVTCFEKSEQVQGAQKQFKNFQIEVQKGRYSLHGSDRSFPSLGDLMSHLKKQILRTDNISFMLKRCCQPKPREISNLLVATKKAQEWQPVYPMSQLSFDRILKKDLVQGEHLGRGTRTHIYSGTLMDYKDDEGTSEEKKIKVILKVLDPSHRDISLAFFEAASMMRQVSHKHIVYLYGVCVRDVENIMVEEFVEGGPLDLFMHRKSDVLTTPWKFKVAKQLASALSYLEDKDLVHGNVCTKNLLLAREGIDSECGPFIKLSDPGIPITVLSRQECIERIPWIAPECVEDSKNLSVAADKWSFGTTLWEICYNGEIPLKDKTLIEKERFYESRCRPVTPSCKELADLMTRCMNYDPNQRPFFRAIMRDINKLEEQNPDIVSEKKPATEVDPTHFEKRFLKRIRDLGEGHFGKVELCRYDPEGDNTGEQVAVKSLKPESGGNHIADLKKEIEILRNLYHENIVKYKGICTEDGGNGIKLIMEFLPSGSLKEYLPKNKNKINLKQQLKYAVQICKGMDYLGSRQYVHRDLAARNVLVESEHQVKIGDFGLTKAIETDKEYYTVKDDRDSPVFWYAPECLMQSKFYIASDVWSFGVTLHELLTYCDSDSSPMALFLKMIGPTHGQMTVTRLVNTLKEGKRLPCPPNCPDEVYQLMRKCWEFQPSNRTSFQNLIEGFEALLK
# assay: JAK1 TR-FRET kinase assay
# Type: biochemical
# conditionInfo: TR-FRET, JAK1 2.5 nM
pIC50: −log10 of the molar value.
Measured pIC50 of individual entries
endpoint: pIC50

compound	endpoint	observed
CCC(=O)c1cnc(NC(=O)CCNC)cc1Nc1cccc(-c2ncn(C)n2)c1OC [Compound 23H]	pIC50	≤ 6.30
CCC(=O)c1cnc(Nc2ccc(-n3cnccc3=O)cn2)cc1Nc1cccc(-c2ncn(C)n2)c1OC [Compound 15Y]	pIC50	≤ 6.30
CCC(=O)c1cnc(Nc2ncc(OC3COC3)cc2F)cc1Nc1cccc(-c2ncn(C)n2)c1OC [Compound 18BBBB]	pIC50	≤ 6.30
CCC(=O)c1cnc(Nc2ccc(CN(C)CC#N)cn2)cc1Nc1cccc(-c2ncn(C)n2)c1OC [Compound 9BB]	pIC50	≤ 6.30
CCC(=O)c1cnc(Nc2ccc(CN(C)C(C)C)cn2)cc1Nc1cccc(-c2ncn(C)n2)c1OC [Compound 9T]	pIC50	≤ 6.30
CCC(=O)c1cnc(Nc2cnc(CN(C)CC(F)F)cn2)cc1Nc1cccc(-c2ncn(C)n2)c1OC [Compound 9WWW]	pIC50	≤ 6.30
COc1c(Nc2cc(Nc3ccc(OCCCO)cn3)ncc2C(=O)C2CC2)cccc1-c1ncn(C)n1 [Compound 18C]	pIC50	≤ 6.30
CCC(=O)c1cnc(Nc2ccc(CN3CCS(=N)(=O)CC3)cn2)cc1Nc1cccc(-c2ncn(C)n2)c1OC [Compound 9WW]	pIC50	≤ 6.30
[2H]C([2H])([2H])N1CC[C@@H](Oc2ccc(Nc3cc(Nc4cccc(-c5ncn(C)n5)c4OC)c(C(=O)CC)cn3)nc2)C1 [Compound 18X]	pIC50	≤ 6.30
CCC(=O)c1cnc(Nc2ccn(C3CC(F)(F)C3)n2)cc1Nc1cccc(-c2ncn(C)n2)c1OC [Compound 21GG]	pIC50	≤ 6.30
CCC(=O)c1cnc(Nc2ccc([C@@H](C)N3CC4(COC4)C3)cn2)cc1Nc1cccc(-c2ncn(C)n2)c1OC [Compound 9BBB]	pIC50	≤ 6.30
CCC(=O)c1cnc(NC(=O)CC2CC2)cc1Nc1cccc(-c2ncn(C)n2)c1OC [Compound 23B]	pIC50	≤ 6.30
CCC(=O)c1cnc(Nc2ccc([C@@H](C)N3CC(O)C3)cn2)cc1Nc1cccc(-c2ncn(C)n2)c1OC [Compound 9HH]	pIC50	≤ 6.30
CCC(=O)c1cnc(Nc2ccc(OCCN3CCCC3)cn2)cc1Nc1cccc(-c2ncn(C)n2)c1OC [Compound 10A]	pIC50	≤ 6.30
CCC(=O)c1cnc(Nc2cnc(O[C@H]3CN(C)C[C@@H]3F)cn2)cc1Nc1cccc(-c2ncn(C)n2)c1OC [Compound 18AAA]	pIC50	≤ 6.30
CCC(=O)c1cnc(Nc2ccc(OC[C@H](O)CO)cn2)cc1Nc1cccc(-c2ncn(C)n2)c1OC [Compound 18G]	pIC50	≤ 6.30
CCC(=O)c1cnc(Nc2ccc(C(C)NC)cn2)cc1Nc1cccc(-c2ncn(C)n2)c1OC (centres unmarked) [Compound 9H]	pIC50	≤ 6.30
CCC(=O)c1cnc(Nc2cnc(O[C@@H]3CCCN(C)C3)cn2)cc1Nc1cccc(-c2ncn(C)n2)c1OC [Compound 18PPP]	pIC50	≤ 6.30
CCC(=O)c1cnc(Nc2cnc(O[C@H]3CCN(C)C[C@@H]3F)cn2)cc1Nc1cccc(-c2ncn(C)n2)c1OC [Compound 18TTT]	pIC50	≤ 6.30
CCC(=O)c1cnc(Nc2cnc(OCCO)cn2)cc1Nc1cccc(-c2ncn(C)n2)c1OC [Compound 18P]	pIC50	≤ 6.30
CCC(=O)c1cnc(Nc2ccn(-c3ccccn3)n2)cc1Nc1cccc(-c2ncn(C)n2)c1OC [Compound 21E]	pIC50	≤ 6.30
CCC(=O)c1cnc(NC(=O)[C@@H]2C[C@H]2NC(C)=O)cc1Nc1cccc(-c2ncn(C)n2)c1OC [Compound 22I]	pIC50	≤ 6.30
CCC(=O)c1cnc(Nc2ccc(P(C)(C)=O)cn2)cc1Nc1cccc(-c2ncn(C)n2)c1OC [Compound 15DD]	pIC50	≤ 6.30
COc1c(Nc2cc(Nc3ccc(-n4ccnc4)cn3)ncc2C(=O)C2CC2)cccc1-c1ncn(C)n1 [Compound 15Q]	pIC50	≤ 6.30
CCC(=O)c1cnc(Nc2ccc(OC[C@@H](O)CO)cn2)cc1Nc1cccc(-c2ncn(C)n2)c1OC [Compound 18F]	pIC50	≤ 6.30
CCC(=O)c1cnc(NC(=O)[C@@H]2C[C@@H]2NC(C)=O)cc1Nc1cccc(-c2ncn(C)n2)c1OC [Compound 22K]	pIC50	≤ 6.30
CCC(=O)c1cnc(NC(=O)C2CC2c2ccn(C)n2)cc1Nc1cccc(-c2ncn(C)n2)c1OC (centres unmarked) [Compound 22M]	pIC50	≤ 6.30
CCC(=O)c1cnc(Nc2cnc(CN(C)CC(F)(F)F)cn2)cc1Nc1cccc(-c2ncn(C)n2)c1OC [Compound 9XXX]	pIC50	≤ 6.30
CCC(=O)c1cnc(Nc2cccc(CN3CCCC3)n2)cc1Nc1cccc(-c2ncn(C)n2)c1OC [Compound 9FFFF]	pIC50	≤ 6.30

Where these numbers come from: patent US20230295119A1
